System: HCT-116
Assay: Cytotoxicity against human HCT-116 cells incubated for 48 hrs by MTT assay
Type: functional, cell-based
Details: HCT-116, 48 h
MEASURE: pIC50
Note: pIC50 values are expressed as the negative base-10 logarithm of concentration in M.

Challenge: Entry under review: CC[C@@]1(O)C(=O)OCc2c1cc1n(c2=O)Cc2cc3ccccc3nc2-1 . Reported pIC50?
Response given: 7.29

Challenge: Entry under review: O=c1/c(=C\c2ccccc2)n2c(=O)c3ccccc3nc2n1CCN1CCOCC1 . Reported pIC50?
Response given: 5.44

###

Assay: Cytotoxicity against human BJ cells incubated for 48 hrs by MTT assay
Format: toxicity, cell-based
MEASURE: IC50 at 48 h (µM)
Give the quantity in µM, number only.

Challenge: Entry under review: O=c1c2ccccc2nc2n1c(=O)c1cc3ccccc3c(=O)n12 . Reported IC50 at 48 h?
Response given: 128

Challenge: Entry under review: O=C1NC(=S)n2c1cc1ccccc1c2=O . Reported IC50 at 48 h?
Response given: 258

Challenge: Entry under review: O=c1/c(=C\c2ccccc2)n2c(=O)c3ccccc3nc2n1CCN1CCOCC1 . Reported IC50 at 48 h?
Response given: 4.25

###

Test system: MG-63
Assay: Cytotoxicity against human MG-63 cells incubated for 48 hrs by MTT assay
Assay type: functional, cell-based
Conditions: Homo sapiens, MG-63, 48 h; read-out: IC50
MEASURE: pIC50
Note: pIC50 values are expressed as the negative base-10 logarithm of concentration in M.

Challenge: Entry under review: O=c1/c(=C\c2ccccc2)n2c(=O)c3ccccc3nc2n1CCN1CCOCC1 . Reported pIC50?
Response given: 4.75

Challenge: Entry under review: CC[C@@]1(O)C(=O)OCc2c1cc1n(c2=O)Cc2cc3ccccc3nc2-1 . Reported pIC50?
Response given: 7.34

###

System: DU-145
Assay: Cytotoxicity against human DU-145 cells incubated for 48 hrs by MTT assay
Assay type: functional, cell-based
Conditions: DU-145, 48 h
MEASURE: IC50

Challenge: Please state recorded IC50 (tested on DU-145) of CC[C@@]1(O)C(=O)OCc2c1cc1n(c2=O)Cc2cc3ccccc3nc2-1 [CAMPTOTHECIN]
Response given: 42 nM

Challenge: Please state recorded IC50 (tested on DU-145) of O=c1/c(=C\c2ccccc2)n2c(=O)c3ccccc3nc2n1CCN1CCOCC1
Response given: 3810 nM

Challenge: Please state recorded IC50 (tested on DU-145) of COc1cccc2c1C(=O)c1c(O)c3c(c(O)c1C2=O)C[C@@](O)(C(=O)CO)C[C@@H]3O[C@H]1C[C@H](N)[C@H](O)[C@H](C)O1 [DOXORUBICIN]
Response given: 72 nM

###

Test system: PANC-1
Assay: Cytotoxicity against human PANC-1 cells incubated for 48 hrs by MTT assay
Type: functional, cell-based
Details: PANC-1, 48 h
MEASURE: IC50 (nM)
Give the quantity in nM, number only.

Challenge: Entry under review: CC[C@@]1(O)C(=O)OCc2c1cc1n(c2=O)Cc2cc3ccccc3nc2-1 [CAMPTOTHECIN] . Reported IC50?
Response given: 233

Challenge: Entry under review: O=c1/c(=C\c2ccccc2)n2c(=O)c3ccccc3nc2n1CCN1CCOCC1 . Reported IC50?
Response given: 19000

Challenge: Entry under review: COc1cccc2c1C(=O)c1c(O)c3c(c(O)c1C2=O)C[C@@](O)(C(=O)CO)C[C@@H]3O[C@H]1C[C@H](N)[C@H](O)[C@H](C)O1 [DOXORUBICIN] . Reported IC50?
Response given: 86

###

System: HOS
Test: Cytotoxicity against human HOS cells incubated for 48 hrs by MTT assay
Format: functional, cell-based
Kindly state IC50 for each of the entries shown.
Give the quantity in µM, number only.

Challenge: Entry under review: COc1cccc2c1C(=O)c1c(O)c3c(c(O)c1C2=O)C[C@@](O)(C(=O)CO)C[C@@H]3O[C@H]1C[C@H](N)[C@H](O)[C@H](C)O1 . Reported IC50?
Response given: 0.03

Challenge: Entry under review: O=c1/c(=C\c2ccccc2)n2c(=O)c3ccccc3nc2n1CCN1CCOCC1 . Reported IC50?
Response given: 1.47

Challenge: Entry under review: CC[C@@]1(O)C(=O)OCc2c1cc1n(c2=O)Cc2cc3ccccc3nc2-1 . Reported IC50?
Response given: 0.049

Hello, the source for this data is ChEMBL document CHEMBL5518191, in case you need it.
